SYSTEM TESTED: Ribosomal protein S6 kinase alpha-2 (Homo sapiens) (UniProt Q15349);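 further: value is the mean inhibition of RSK3 within GSK PKIS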
Sequence (Q15349 whole entry): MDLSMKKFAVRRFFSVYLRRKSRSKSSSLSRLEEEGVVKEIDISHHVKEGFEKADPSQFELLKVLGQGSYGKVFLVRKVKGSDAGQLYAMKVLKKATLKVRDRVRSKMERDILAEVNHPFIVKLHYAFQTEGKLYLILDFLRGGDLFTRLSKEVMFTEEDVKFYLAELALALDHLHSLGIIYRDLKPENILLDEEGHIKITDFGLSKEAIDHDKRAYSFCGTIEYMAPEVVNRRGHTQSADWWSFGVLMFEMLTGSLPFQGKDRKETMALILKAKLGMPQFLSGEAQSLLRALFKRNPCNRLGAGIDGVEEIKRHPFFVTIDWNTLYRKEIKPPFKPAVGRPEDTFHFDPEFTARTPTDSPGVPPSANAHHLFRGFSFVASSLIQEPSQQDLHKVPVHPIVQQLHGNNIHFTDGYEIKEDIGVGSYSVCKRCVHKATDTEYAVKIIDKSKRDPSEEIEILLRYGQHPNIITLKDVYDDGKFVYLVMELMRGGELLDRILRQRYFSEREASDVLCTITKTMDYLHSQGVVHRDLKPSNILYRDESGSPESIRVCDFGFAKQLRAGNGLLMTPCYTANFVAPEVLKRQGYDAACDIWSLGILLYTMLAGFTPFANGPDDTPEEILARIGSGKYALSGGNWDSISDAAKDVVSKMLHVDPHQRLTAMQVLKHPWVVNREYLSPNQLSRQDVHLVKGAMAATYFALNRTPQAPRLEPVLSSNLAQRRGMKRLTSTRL
REPORTED CONDITIONS: at 1 µM
Dear colleague, classification is by inhibition, with ranges listed here: c1 = under 2%, c2 = from 2% up to 4%, c3 = 4% and over

INPUT: # bin lookup: classify NCc1ccc(-c2nc(-c3ccc(Cl)c(O)c3)c(-c3ccncc3)[nH]2)cc1 by its inhibition
OUTPUT: c1

INPUT: Another molecule: O=C1NC(=O)C(c2cccc(Cl)c2)=C1Nc1ccc(O)c(Cl)c1
OUTPUT: c3

INPUT: Would you kindly repeat that for COc1cc2ncn(-c3cc(OCc4ccccc4Cl)c(C(N)=O)s3)c2cc1OC ?
OUTPUT: c3

INPUT: What about CS(=O)(=O)CCNCc1ccc(-c2ccc3ncnc(Nc4ccc(OCc5cccc(F)c5)c(C(F)(F)F)c4)c3c2)o1 ?
OUTPUT: c2

INPUT: Again, but for Cc1nn(C)c2cc(N(C)c3ccnc(Nc4cccc(S(N)(=O)=O)c4)n3)ccc12
OUTPUT: c3

INPUT: Also CCn1c(-c2nonc2N)nc2cnc(Oc3cccc(NC(=O)c4ccc(OCCN5CCOCC5)cc4)c3)cc21 , if possible.
OUTPUT: c3

INPUT: Repeat with CCn1c(-c2nonc2N)nc2cncc(C(=O)N3CCNCC3)c21
OUTPUT: c2

INPUT: // repeat for CCn1c(-c2nonc2N)nc2c(N3CCCC3)nccc21 and report
OUTPUT: c3

INPUT: Now try Cc1cc(O)cc(C)c1/C=C/c1cncc(-c2nn[nH]n2)c1 .
OUTPUT: c2

INPUT: // query: CCc1cccc(NC(=O)Nc2ccc(Oc3ccc4nc(NC(=O)OC)[nH]c4c3)cc2)c1
OUTPUT: c1

INPUT: Next molecule: COc1cc2ncn(-c3cc(OCc4ccccc4C(F)(F)F)c(C(N)=O)s3)c2cc1OC
OUTPUT: c3

INPUT: // same read-out, input: CS(=O)(=O)Nc1ccc(N/C=C2\C(=O)Nc3ccccc32)cc1
OUTPUT: c3

INPUT: Now give it for COc1cccc(-n2ncc3c(N/N=C/c4cccc(F)c4)ncnc32)c1 too.
OUTPUT: c2

INPUT: // same read-out, input: NS(=O)(=O)c1cccc(-c2ccc3c(NC(=O)C4CC4)n[nH]c3c2)c1
OUTPUT: c1

INPUT: Do the same for NC(=O)c1cccc(Nc2nccc(Nc3cccc4[nH]ncc34)n2)c1 please
OUTPUT: c2

INPUT: Also check O=C(Nc1n[nH]c2nc(-c3ccco3)c(Br)cc12)C1CC1
OUTPUT: c2

INPUT: What do you get for COc1cc2c(cc1Nc1nc(N3CCc4ccccc43)c3cc[nH]c3n1)N(C(=O)CN(C)C)CC2 ?
OUTPUT: c1

INPUT: Repeat with CS(=O)(=O)CCN(CC#N)Cc1ccc(-c2ccc3ncnc(Nc4ccc(OCc5cccc(F)c5)c(Cl)c4)c3c2)o1
OUTPUT: c1

INPUT: And the next one, [O-][S+]1CCN(Cc2ccc(-c3ccc4ncnc(Nc5ccc(OCc6ccccc6)c(F)c5)c4c3)o2)CC1 ?
OUTPUT: c1

INPUT: Another molecule: Fc1cccc(COc2ccc(Nc3ncnc4sc(-c5cccs5)cc34)cc2Cl)c1
OUTPUT: c1

* * *

SYSTEM TESTED: Sphingosine kinase 1 (Homo sapiens) (UniProt Q9NYA1);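 further: mean SPHK1 inhibition value reported from the GSK PKIS kinase panel screen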
Sequence (Q9NYA1 whole entry): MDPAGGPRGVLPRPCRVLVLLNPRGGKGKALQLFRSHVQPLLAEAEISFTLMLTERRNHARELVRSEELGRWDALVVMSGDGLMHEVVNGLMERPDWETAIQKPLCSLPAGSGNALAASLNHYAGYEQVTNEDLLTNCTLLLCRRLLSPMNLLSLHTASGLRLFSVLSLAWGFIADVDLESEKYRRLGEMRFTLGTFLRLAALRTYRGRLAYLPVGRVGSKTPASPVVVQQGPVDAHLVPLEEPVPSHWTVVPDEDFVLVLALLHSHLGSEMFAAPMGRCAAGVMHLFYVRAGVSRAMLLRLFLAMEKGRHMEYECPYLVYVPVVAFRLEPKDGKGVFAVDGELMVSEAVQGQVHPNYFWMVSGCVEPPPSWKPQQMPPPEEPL
REPORTED CONDITIONS: at 1 µM
I'd be grateful if you could share measured inhibition for these entries.
Output spec: scalar in %, unitless text.

INPUT: Report inhibition for N#Cc1c(NC(=O)c2cccc3ccccc23)sc2c1CCCC2 please.
OUTPUT: -0.69

INPUT: Next entry: COc1cc2ncn(-c3cc(OCc4ccccc4Cl)c(C(N)=O)s3)c2cc1OC
OUTPUT: -2.81

INPUT: Consider next the compound Cc1ccc(C(=O)NC2CCCCC2)cc1-c1ccc(C(=O)NCC2CC2)cc1 in the same way.
OUTPUT: -0.86

INPUT: Lookup NCc1ccc(-c2nc(-c3ccc(Cl)c(O)c3)c(-c3ccncc3)[nH]2)cc1
OUTPUT: -0.71

INPUT: Field entry: COc1cc2ncn(-c3cc(O[C@H](C)c4ccccc4Cl)c(C(N)=O)s3)c2cc1OC
OUTPUT: -3.88

INPUT: And Cn1cc(C=C2C(=O)Nc3cccnc32)c2ccccc21 ?
OUTPUT: 8.29

INPUT: And what about the compound Nc1ncnc2occ(-c3ccc(NC(=O)Nc4cc(C(F)(F)F)cc(C(F)(F)F)c4)cc3)c12 ?
OUTPUT: -0.76

INPUT: Moving on to the next compound: CC1=C(C(=O)Nc2ccc3[nH]ncc3c2)C(c2ccc(Cl)c(Cl)c2)CC(=O)N1 (configuration not stated)
OUTPUT: -3.67

INPUT: Then CN1CCC(C(=O)Nc2n[nH]c3nnc(-c4ccccc4)cc23)CC1 ?
OUTPUT: -3.46

INPUT: Record: CCn1c(-c2nonc2N)nc2c(N3CCCC3)nccc21
OUTPUT: -1.44

INPUT: Check [O-][S+]1CCN(Cc2ccc(-c3ccc4ncnc(Nc5ccc(OCc6ccccc6)c(F)c5)c4c3)o2)CC1 too.
OUTPUT: -3.44

INPUT: Another compound: CS(=O)(=O)CCN(CC#N)Cc1ccc(-c2ccc3ncnc(Nc4ccc(OCc5cccc(F)c5)c(Cl)c4)c3c2)o1
OUTPUT: -0.02
